measurement-description: protease stability score; higher = more stable; yeast display proteolysis, trypsin and chymotrypsin;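 further: relative to predicted unfolded state with 0 unfolded-like and 1 meaning tenfold more protease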
observation-type: protease stability score

- DEWEESHKLVSKMIADTDETGDERIKRRLLDPHARLIVDGREYHGREHMDKIWKYFGLDRIHVEVRRMHVYGDKVSLHVHSIYNGREVEVHIIIHKVDGRWHLHSVDIQ: 0.596
- DERDELLEHVIKLHQDALRTGDEHTLTELMDPHVRVIIGDKHHHGWESITKYLRELRFHSHEVHIDHVHIFNGRIHADITLRGTHHFNGRTFHDTHKVELINTKINGKWTIESLIIR: 1.15
- TEYEHLMEYIVRRFLEVLLTGDERELDRLADPHVIHHMKQGDKSWSLHGMELLSEVSRHWRDEIRIKRVEIHDLKNIGNWSDMYSTVHLRYNGREEVVEVRLHIDVYNGRVREVEIRIH: 1.12
- SLEEHAFRLALHLLENMWLTGDEELFERLLDPHARLEFENHKYHGRDIVSEFMRRIKNLTFHRIIFRNRDVQGEKVSFIMETDVEWNGKRHIEHTHITVHKINGVWLIHEVDIR: 1.42
- SEEERTAEKLMRDWLKNWMTGNEEIIKELADPNVKLLVGDKEMHGMEELSRFLKELRIHDSDVRDIRLKSINGVLHIESDGRLKGEFNGQHIDTRTVVRLDVHKFDGRWHLKSIEVEIR: 1.95
- DEEEKDVQKILKIMIESMKTGDEHTIERLVDPHVRLIINGKRLHGWELFVKIVHHEAEHARVDEIRIDHMHVIDGRAHLYLTIKRTVGDKHIKLDLEFIWSKFDGRWHVEEERRE: 1.14
- TELEKDVVEVLHFLTHAHKTGDEDAINRLLDPHTRIDIDGQEFIGREDALRLWHELRTTHMRIDDRRIQGDKIQVDGQVNYLVNGREEERDVTIHMVKFDGVWVLREIKID: 2.07
- TEDERMNKEFHRLIWELIDTGDEETLRKLADPNTRLEVNGKTIIGREEFLSIWKHELHMLGVKHLEIHIRSVMFFENRVENDVELVLHIGEYEERRRIHIFLIKINGKWYHKSERIR: 1.46
- DERHEHTHELMRLLIEAFVTGDERLSEELADPHTRLHVNGVHNWGRERFVEVVRRLWSQVKNAKWTLRDFHVQGDKNEVVGDVHVDGQTIHVRFIFFVFNGRLESEEIRVH: 2.4
- SDYTEVAHEIMDEWSKAILTGDEDTVEELLDPNVRVDINGQEIHGWETIFKKLRRFVDELGIDHVHVNTKRVKLIGNYIHVDGELRYHQGDFHIVRKVRLLIVKINGQWLIREINLK: 2.42
- NEHEEYARRQLELWLHATRTGDEETVRRLADPDVRVIVDGREHHGMEQLLRWMIELRITDFKEDTYEIQGNKIKIRGILYIEIGDKHETRFTTIELNWFNGVLKHIKVEVR: 1.28
- SEEEEHTHRISRRFWRFLVTGDEDALLKNADPHVRLVIGDKHSHGRENFKRLLREWLEELGAKHLHIRDLEVQGNKVHTHGEMTVNGRNIETHIELVVIDGRHHSMEFRIG: -0.021

----------
measurement-description: protease stability score; higher = more stable; yeast display proteolysis, trypsin and chymotrypsin;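 further: relative to predicted unfolded state with 0 unfolded-like and 1 meaning tenfold more protease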
Consider the following sequences and their measured protease stability score readings.
observation-type: protease stability score

- DEEEEFLRLILETLRHAAETGDWHILNRLLDPDARIVIGDKEIHGREKVQHEFRRIDHYQWHHIILDRVHIYDGRIELHGQVEEELNVDGQRIRRLTDTHFVIVKVDGQWKIHTIEIR: 2.22
- SEDEEAIERFLREFVKAERTGDEKTILSLMDPHVRIHQGDWEVHGRDDLRHFFHRIDHVRSRFHLTHVDHQGDKAIFKGTVEYHIHVDGKDIHSTSSVDIHVRKINGRWLMHNVHIE: 1.63
- SEEEEMLKIALRIMLHTIHTGDEDLFSELADPNVKIKIDGVELVGWEFAHEWMREHIEQVPNVKLKIHSVKTIDGRVDSDLIRIFDGVTHKIRLISHKINGRWLIETITVN: 0.964
- SEEEEEIERMFKDWSRAVRTGDEERYDHLADPNVRIHIGDKDVHGRENFIKYLHHIRIRDVRLRDFRIYDGRVELDIEVDRHVNGRDDRTQVIMVLLKFNGQWHVESVYVK: 1.2
- SEEEKKLNHWLELWLRSVVTGDEEHLERLADPHVRNHVGDFESHGREEVLKLMEMLKRTLGAKHIRIEIHHVDVQGDKVRMDTRIIIDAENHHLTLKSRMHTRKIDGRWYLHSLEID: 1.06
- SEDEEDFERAIKLYETLNATGNEEEYSKMVDPHVKMHFNGVDFHGREKMVEVVHKLGVKHLETKSIRIIGDFLRSRFENDVDGRKIEQEVQMLKINGRWLIKYISFH: 0.706
- SEEHTIAEEAIKHLIEILETGDFRTLHRMIDPHVRFEYGDKHLHGREILIKWFEEHWEKLGVDKVEVHVKDIEIQGNKAIVIGDIVINGQRKDTVWHLIVINGRIKMIRIEEH: 1.7
- SDEEREIEHLARLFLEWWYTGDEDTIMKNADPHVRHDFNGVENIGRERVAEVVVHLIRELRIKSMHLHDIDIQGNKVDMNIELDGTYNGKRRKREMEIELVFINGRIKSSHVTIK: 1.17

----------
measurement-description: protease stability score; higher = more stable; yeast display proteolysis, trypsin and chymotrypsin;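 further: relative to predicted unfolded state with 0 unfolded-like and 1 meaning tenfold more protease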
Consider the following sequences and their measured protease stability score readings.
observation-type: protease stability score

* DERKKDAERMVEWIMHLWETGNFERLFRLADPHVRFILHQGDKELHFHGRELVEEAIFRLLLHIRIDDRIDRRVHIFPNRLDIHGQVHVHVGDKRHDLIIHIEVFIIDGKLKRIEIEIE | 1.49
* SEEEQFFRLALELFRQVLQTGDEDRLRELVDPNAKHIINGVELHGRSVLEEFLKRYKNLRIHDVEIKDIRVFDGKLELHGIEDGIIGDKRDERRWHLISEKVDGRWIMHEIQID | 1.7
* DEDDKDIEMVLRRLIEMVMTGDFEKAKRYADPDMQLDIGDKHFVGRETTITVLREWREHLGIDHVDIDHVHLHIIDGQVIVDLDITHRAENREIRVRFIHYVDKINGRWLVRRVDVKIH | 2.31
* DEHEEFAERNLKLLTELEETGNEDEIRKQADPHVRIEIGDKDIVGMHLWAKWVTHVKDRFDHIEVRLHRVHVQGDKILMHTQLILTQGNYRREFRTEVIIRKINGRWVLHSMHFH | 1.42
* SEDEHMFELARHILEETDRTGDWRELEKNVDPNARLRVDGQRQHGRDSVRLLIERADHIHHRRLETFTVVNGVIHFEMHVHVIINGVPYEVEVHMHALKVDGKWIIKKVEMD | 0.479
* TEHEEMIREALEFLIRLLETGDFERLHHLADPNVRLEQGDKEFIGREEWLRLFTEEIRQYKGITIHIHEVEVVDGRVYINGTVHQGDKIRRVIWVIIKIDGKWRIHSVHIR | 2.19
* SQDKETSDEAFRIWVESYETGNEHLEEHMVDPNARSRVGDKELIGMEHFIKIMEKIKNATLEIRHRSYTEIDGRLRWHTQLYIEYGDKRIEREIIIIVHKVNGRWSIEHFEVR | 0.973
* SEDEELVERAIRWLESILQTGDEHVLEHFADPHVRVTVGDYDDHGRHAIHTVWRLMGVNHSEIKRKDIQVVNGVIYIHLDGVSRVNGRNFKLSIHVILEKIDGRWHVRTLHVDIK | 1.05
* DHLEELHETITKLWLEARRTGDEHLFRELMDPHVRIHIGDFEHHGREEALKAFDDIDRHLGVKHHHVDSWHVVNGQMIIDGRLHFDGQTRKVHIDLVIIDGRIEEIREEIR | 0.617

----------
Consider the following sequences and their measured protease stability score readings.
measurement-description: protease stability score; higher = more stable; yeast display proteolysis, trypsin and chymotrypsin;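 further: relative to predicted unfolded state with 0 unfolded-like and 1 meaning tenfold more protease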
observation-type: protease stability score

* SEEEEAEREFWEEFLRTSRTGDEELFEELIDPNVKIDINGRDLHGMEEALDTFRELRIKDIKVKHVEEQGDKIILDGRVDGIFDGKYDRVEVTFFVLKIDGRWVYHSIRLE | 1.13
* TELEEIFRLALEYLDKIWKTGDEHTLKRMFDPTTLLVVDGKRQHGMEFWREFLERYDHFHHLEVDDYHDVNGVLRLHGVIDGTVNGRRHEIHVHIVASKVNGKWRLKSVIFH | 1.5
* DERDEHSRHVAELWLQSMETGDWEHDRRLLDPNMKFEAPNHSLHGRDSYVETMRKIKNLVIHDTKIEHYEVQGDKAHVQMRIDVIVGDKRTWVEVRVEIVVVDGVLHSLRIEIE | 0.777
* DEEDELLERTLKEVAHAWRTGDWRRIEEMFDPNARVDINGVNFVGREEMHRILHEMRIEIEDFKLRRKRIVDGRLELDGEMLGIFRQGDKERRHRSRVFIVILKIDGRWVFEEVRFH | 2.43
* SHNEEQSEREAKLEIEAYLTGDFDTLHRLADPNVRNNIEYGDKEIRLHGREEWVHQFYKLVEEYKGVKIHLQHLEYQGDKVILRIEIRVNGRERVLEIQIHVINGRSKEVNVETHVH | 1.18

meta.source: the NTF2 design screens of Basanta et al. (2020)
